EC50 values by entry
# test_target: Voltage-dependent T-type calcium channel subunit alpha-1H (Homo sapiens);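 further: channel activity triggered by adding a high calcium stimulation buffer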
# Sequence (O95180 whole entry): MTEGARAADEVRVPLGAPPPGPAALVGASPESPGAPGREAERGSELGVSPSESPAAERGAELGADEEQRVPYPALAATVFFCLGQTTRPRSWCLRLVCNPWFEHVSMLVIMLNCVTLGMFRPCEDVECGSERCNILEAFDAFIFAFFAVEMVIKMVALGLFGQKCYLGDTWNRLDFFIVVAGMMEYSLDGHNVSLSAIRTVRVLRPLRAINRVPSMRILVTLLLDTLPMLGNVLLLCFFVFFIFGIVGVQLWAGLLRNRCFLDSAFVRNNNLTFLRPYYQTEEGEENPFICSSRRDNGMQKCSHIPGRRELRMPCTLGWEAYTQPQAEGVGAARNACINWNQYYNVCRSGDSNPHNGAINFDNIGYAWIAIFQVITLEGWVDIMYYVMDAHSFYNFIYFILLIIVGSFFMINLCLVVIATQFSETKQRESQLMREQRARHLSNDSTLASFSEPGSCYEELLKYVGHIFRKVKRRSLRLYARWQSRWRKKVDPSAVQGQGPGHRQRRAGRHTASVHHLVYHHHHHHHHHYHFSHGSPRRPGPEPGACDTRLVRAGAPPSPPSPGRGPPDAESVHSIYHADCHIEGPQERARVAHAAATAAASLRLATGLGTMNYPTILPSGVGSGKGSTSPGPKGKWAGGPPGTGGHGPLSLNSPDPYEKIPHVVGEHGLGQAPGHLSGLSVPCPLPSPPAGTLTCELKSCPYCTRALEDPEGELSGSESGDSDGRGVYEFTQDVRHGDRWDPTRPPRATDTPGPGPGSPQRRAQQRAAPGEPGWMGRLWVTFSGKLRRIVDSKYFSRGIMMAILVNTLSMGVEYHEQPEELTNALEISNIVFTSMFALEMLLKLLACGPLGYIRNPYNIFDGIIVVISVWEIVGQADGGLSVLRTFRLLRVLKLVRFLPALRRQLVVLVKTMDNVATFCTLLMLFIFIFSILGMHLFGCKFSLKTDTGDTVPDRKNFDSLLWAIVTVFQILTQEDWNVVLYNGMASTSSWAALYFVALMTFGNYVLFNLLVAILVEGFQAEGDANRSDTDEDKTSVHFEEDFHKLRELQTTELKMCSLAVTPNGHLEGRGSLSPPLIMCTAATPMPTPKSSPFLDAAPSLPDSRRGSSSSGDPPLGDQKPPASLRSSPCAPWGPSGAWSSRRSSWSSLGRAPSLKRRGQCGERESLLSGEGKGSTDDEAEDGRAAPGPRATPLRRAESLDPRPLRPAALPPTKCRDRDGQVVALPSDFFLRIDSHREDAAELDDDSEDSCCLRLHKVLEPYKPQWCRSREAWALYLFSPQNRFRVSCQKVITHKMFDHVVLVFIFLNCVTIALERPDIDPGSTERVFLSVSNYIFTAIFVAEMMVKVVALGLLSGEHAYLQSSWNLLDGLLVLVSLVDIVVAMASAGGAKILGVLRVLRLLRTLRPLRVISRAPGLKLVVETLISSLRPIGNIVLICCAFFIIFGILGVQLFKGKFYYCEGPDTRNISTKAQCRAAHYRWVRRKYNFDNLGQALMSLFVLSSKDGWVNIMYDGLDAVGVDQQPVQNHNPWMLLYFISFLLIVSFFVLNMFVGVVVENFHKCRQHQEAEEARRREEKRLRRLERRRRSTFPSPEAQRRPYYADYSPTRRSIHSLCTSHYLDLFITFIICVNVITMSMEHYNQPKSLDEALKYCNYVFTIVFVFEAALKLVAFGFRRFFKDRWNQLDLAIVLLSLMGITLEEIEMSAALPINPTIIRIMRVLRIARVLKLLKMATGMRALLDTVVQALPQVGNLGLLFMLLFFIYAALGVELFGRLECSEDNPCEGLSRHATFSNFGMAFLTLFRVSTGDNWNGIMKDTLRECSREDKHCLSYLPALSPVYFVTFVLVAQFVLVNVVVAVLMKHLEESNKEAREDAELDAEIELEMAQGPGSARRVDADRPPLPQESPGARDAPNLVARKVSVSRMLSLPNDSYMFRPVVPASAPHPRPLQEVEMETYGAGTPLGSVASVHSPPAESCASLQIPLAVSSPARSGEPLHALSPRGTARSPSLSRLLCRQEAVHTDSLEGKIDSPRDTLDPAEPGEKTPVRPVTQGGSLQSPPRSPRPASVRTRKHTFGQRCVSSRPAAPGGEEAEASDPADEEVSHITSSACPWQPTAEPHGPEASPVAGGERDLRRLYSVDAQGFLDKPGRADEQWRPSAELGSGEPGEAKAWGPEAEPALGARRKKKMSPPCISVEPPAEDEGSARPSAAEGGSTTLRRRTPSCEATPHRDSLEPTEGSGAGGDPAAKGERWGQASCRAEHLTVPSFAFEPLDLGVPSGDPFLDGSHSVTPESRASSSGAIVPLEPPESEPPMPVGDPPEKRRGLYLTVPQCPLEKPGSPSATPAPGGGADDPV
# Assay type: functional
Active and inactive are the calls of the source.

Problem: Name the reported EC50 value associated with the compound O=C(COc1ccc(Cl)cc1)NCCSCc1cccc(Cl)c1
Solution: 3.76 µM (active)

Problem: I'd like to know its EC50. The compound in question is O=C(CN1CCC(n2nnc3cc(F)ccc32)CC1)Nc1ccc2c(c1)CCC2
Solution: 5.76 µM (active)

---

Below is a list of entries, each paired with its recorded EC50 value.
# test_target: Luciferin 4-monooxygenase (Photinus pyralis, UniProt P08659)
# Sequence (P08659 whole entry): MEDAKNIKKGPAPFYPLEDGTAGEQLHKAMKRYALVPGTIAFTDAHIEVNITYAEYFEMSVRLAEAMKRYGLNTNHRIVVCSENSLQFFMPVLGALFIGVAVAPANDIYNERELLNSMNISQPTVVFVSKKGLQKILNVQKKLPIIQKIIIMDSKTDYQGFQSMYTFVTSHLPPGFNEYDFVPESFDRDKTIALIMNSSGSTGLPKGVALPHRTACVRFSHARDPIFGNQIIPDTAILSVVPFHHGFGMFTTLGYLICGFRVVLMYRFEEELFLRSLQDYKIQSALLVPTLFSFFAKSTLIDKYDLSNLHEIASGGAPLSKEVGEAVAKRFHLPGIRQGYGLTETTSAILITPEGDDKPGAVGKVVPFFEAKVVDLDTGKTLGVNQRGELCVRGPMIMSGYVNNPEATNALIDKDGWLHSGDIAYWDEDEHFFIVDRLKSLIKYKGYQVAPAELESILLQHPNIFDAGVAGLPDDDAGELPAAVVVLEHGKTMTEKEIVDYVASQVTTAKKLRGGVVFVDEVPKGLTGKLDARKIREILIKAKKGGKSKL
# method_description: inhibition of purified Photinus pyralis luciferase – biochemical, luminescence, dose response (AID 1891)
Calls of active or inactive are those of the source.

> print(dat)
                                   compound  test.readout               measured
1  O=C(NCc1ccc2c(c1)OCO2)C1CCN(S(=O)(=O)c2ccc(F)cc2)CC1          EC50  > 112 µM (not active)
2        COc1ccc(C(=O)Nc2ccc3[nH]ccc3c2)cc1          EC50       3.28 µM (active)

Problem: Form field: EC50 recorded for O=C(Nc1ccc(Cl)c(Cl)c1)Nc1ccccc1C(=O)O with Luciferin 4-monooxygenase (Photinus pyralis, UniProt P08659) (enter value)
Solution: 0.12 µM (active)

Problem: Given the entry Cn1nnnc1SCC(=O)NC1CCCc2ccccc21 (stereo unspecified) , what EC50 was observed with Luciferin 4-monooxygenase (Photinus pyralis, UniProt P08659)?
Solution: > 112 µM (not active)

---

# method_description: microbe, parasite or virus in culture
# Type: functional
# assay_context: Mycobacterium tuberculosis
The source made the active and inactive calls.
Listing of entries alongside the reported CC50.

These solved cases illustrate the format of a correct answer.
> print(dat)
                                   compound          measured
1  COc1ccc(OCc2cccc(C(=O)Nn3cc([N+](=O)[O-])cn3)c2)cc1  > 40 µM (active)
2  COc1ccc(NC(C)C(=O)Nc2ccc(C(C)(C)C)cc2)cc1Cl (centres undefined)  > 40 µM (active)
3          CCc1ccc(-n2nc3cc(C)c(N)cc3n2)cc1  > 40 µM (active)

Consider the additional compound presented here.
Problem: What value of CC50 has been reported for the following compound? Cn1c(NCC(O)c2ccccc2)nc2c1c(=O)n(Cc1ccc(Cl)c(Cl)c1)c(=O)n2C (centres undefined)
Solution: 25.5 µM (active)

---

# test_target: Microphthalmia-associated transcription factor (Homo sapiens)
# Sequence (O75030 whole entry): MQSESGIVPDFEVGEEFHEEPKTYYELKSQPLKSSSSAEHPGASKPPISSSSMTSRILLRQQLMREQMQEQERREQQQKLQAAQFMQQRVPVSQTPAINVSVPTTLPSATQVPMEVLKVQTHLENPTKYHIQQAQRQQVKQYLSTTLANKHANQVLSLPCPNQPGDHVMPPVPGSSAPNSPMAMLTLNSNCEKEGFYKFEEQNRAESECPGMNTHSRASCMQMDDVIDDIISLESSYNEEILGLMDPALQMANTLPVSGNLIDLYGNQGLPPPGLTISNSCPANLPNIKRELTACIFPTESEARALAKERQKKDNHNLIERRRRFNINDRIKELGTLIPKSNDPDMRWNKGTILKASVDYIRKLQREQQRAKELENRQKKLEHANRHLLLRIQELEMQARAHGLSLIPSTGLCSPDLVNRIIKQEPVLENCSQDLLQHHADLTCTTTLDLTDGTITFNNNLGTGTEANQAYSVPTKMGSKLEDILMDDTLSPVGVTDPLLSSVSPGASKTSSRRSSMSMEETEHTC
# method_description: reducers of TRPM1 reporter luminescence, concentration series – cell-based, SK-MEL-5, cherry-picked, set 3, MITF inhibitor project, dose response (AID 493073);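 further: SK-MEL-5 melanoma cells with luciferase driven by the MITF target TRPM1 promoter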
# Type: functional
Active and inactive are the calls of the source.
Reported values of AC50 for individual entries

Below: 3 compounds and their reported AC50.
> print(dat)
                            chemical.smiles          measured
1   CN(C)CCNc1ccc2nnn3c4ccc(O)cc4c(=O)c1c23  4.73 µM (active)
2  O=C1C(Nc2ccccc2)=C(N2CCCCC2)C(=O)c2ccccc21  6.67 µM (active)
3  COc1ccc(O)c(/C=N/NC(=O)c2ccc(CSc3nc(C)cc(C)n3)cc2)c1  9.31 µM (active)

Problem: Value lookup for AC50; key = Cc1ccc(Cn2c(=N)n(CC(=O)c3ccc([N+](=O)[O-])cc3)c3ccccc32)cc1
Solution: 6.42 µM (active)

Problem: What value of AC50 has been reported for the following compound? COc1ccc(COC(=O)c2cc([N+](=O)[O-])ccc2N2CCOCC2)cc1F
Solution: 0.023 µM (active)
